Values from paper PMC2641037

Test system: Caco-2 cells
testParameters: 125 µM competitor, Caco-2; control without additional drug
Structures can show the parent of a compound that is named as a salt.

[
  {
    "compound": "Nc1nc2ncc(CNc3ccc(C(=O)N[C@@H](CCC(=O)O)C(=O)O)cc3)nc2c(=O)[nH]1 [Folic acid, folic acid]",
    "Papp±SD of montelukast (% of control)": "130±20 % of control"
  },
  {
    "compound": "C[C@H](CCC(=O)O)[C@H]1CC[C@H]2[C@@H]3CC[C@@H]4C[C@H](O)CC[C@]4(C)[C@H]3C[C@H](O)[C@]12C [Deoxycholic acid, deoxycholic acid, sodium salt]",
    "Papp±SD of montelukast (% of control)": "110±10 % of control"
  },
  {
    "compound": "C[C@H](CCC(=O)NCCS(=O)(=O)O)[C@H]1CC[C@H]2[C@@H]3[C@H](O)C[C@@H]4C[C@H](O)CC[C@]4(C)[C@H]3C[C@H](O)[C@]12C [Taurocholic acid, taurocholic acid, sodium salt]",
    "Papp±SD of montelukast (% of control)": "84±9 % of control"
  },
  {
    "compound": "O=S(=O)(O)c1cc(N=C=S)ccc1C=Cc1ccc(N=C=S)cc1S(=O)(=O)O [DIDS]",
    "Papp±SD of montelukast (% of control)": "100±20 % of control"
  },
  {
    "compound": "C[C@H](CCC(=O)O)[C@H]1CC[C@H]2[C@@H]3[C@H](O)C[C@@H]4C[C@H](O)CC[C@]4(C)[C@H]3CC[C@]12C [Chenodeoxycholic acid, chenodeoxycholic acid, sodium salt]",
    "Papp±SD of montelukast (% of control)": "90±10 % of control"
  },
  {
    "compound": "C=C(CC)C(=O)c1ccc(OCC(=O)O)c(Cl)c1Cl [Ethacrynic acid, ethacrynic acid]",
    "Papp±SD of montelukast (% of control)": "100±10 % of control"
  },
  {
    "compound": "O=C1OC(c2ccc(O)c(S(=O)(=O)O)c2)(c2ccc(O)c(S(=O)(=O)O)c2)c2c(Br)c(Br)c(Br)c(Br)c21 [Sulfobromophthalein, sulfobromophthalein]",
    "Papp±SD of montelukast (% of control)": "72±7 % of control"
  },
  {
    "compound": "CC[C@H](C)C(=O)O[C@H]1C[C@H](O)C=C2C=C[C@H](C)[C@H](CC[C@@H](O)C[C@@H](O)CC(=O)O)[C@H]21 [Pravastatin, pravastatin]",
    "Papp±SD of montelukast (% of control)": "83±8 % of control"
  },
  {
    "compound": "O=c1c(-c2ccc(O)cc2)coc2cc(O)cc(O)c12 [Genistein, genistein]",
    "Papp±SD of montelukast (% of control)": "110±10 % of control"
  },
  {
    "compound": "CN(C)C(=O)CCSC(SCCC(=O)O)c1cccc(/C=C/c2ccc3ccc(Cl)cc3n2)c1 (centres unmarked) [MK571, MK571, sodium salt]",
    "Papp±SD of montelukast (% of control)": "130±10 % of control"
  },
  {
    "compound": "CCCCNc1cc(C(=O)O)cc(S(N)(=O)=O)c1Oc1ccccc1 [Bumetanide, bumetanide]",
    "Papp±SD of montelukast (% of control)": "100±10 % of control"
  },
  {
    "compound": "CN/C(=N/CCSCc1nc[nH]c1C)NC#N [Cimetidine, cimetidine]",
    "Papp±SD of montelukast (% of control)": "120±10 % of control"
  },
  {
    "compound": "NS(=O)(=O)c1cc(C(=O)O)c(NCc2ccco2)cc1Cl [Furosemide, furosemide]",
    "Papp±SD of montelukast (% of control)": "95±8 % of control"
  },
  {
    "compound": "CCCN(CCC)S(=O)(=O)c1ccc(C(=O)O)cc1 [Probenecid, probenecid]",
    "Papp±SD of montelukast (% of control)": "90±10 % of control"
  }
]
